Task for the reader: assign each of the following compounds its reported percent inhibition of viability.
Test system: IMC-1 (IL-2 20 ng/mL);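 further: normalised to DMSO-only wells as negative and benzethonium chloride as positive control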
experiment: percent inhibition of viability; higher = more inhibition
test-parameters: 72 h; 1000 nM
# value in %; strip the unit string

### Prompt percent inhibition of viability for Cc1[nH]c2ccccc2c1CCNCc1ccc(/C=C/C(=O)NO)cc1 [Panobinostat] (max concentration tested 1000 nM) ?
### Response 100

### Prompt percent inhibition of viability for COc1ncc(-c2ccc3nccc(-c4ccnnc4)c3c2)cc1NS(=O)(=O)c1ccc(F)cc1F [Omipalisib] (max concentration tested 1000 nM) ?
### Response 29.1

### Prompt percent inhibition of viability for CCc1c2c(nc3ccc(OC(=O)N4CCC(N5CCCCC5)CC4)cc13)-c1cc3c(c(=O)n1C2)COC(=O)[C@]3(O)CC [Irinotecan] (max concentration tested 10000 nM) ?
### Response 95.8

* * *

System: KAI3 (IL-2 2.5 ng/mL)
experiment: drug sensitivity score (DSS) (DSS units); higher = more sensitive; extreme values may be limits of the assay
test-parameters: 72 h
property-name: drug sensitivity score
Answer with the value's number alone.

### Prompt drug sensitivity score for N#CC(c1ccnc(OCc2ccc(CN3CCOCC3)cc2)n1)c1nc2ccccc2s1 (stereo not given) [Bentamapimod] (max concentration tested 10000 nM) ?
### Response 4.12

### Prompt drug sensitivity score for CCn1c(-c2nonc2N)nc2c(C#CC(C)(C)O)ncc(OC[C@H]3CCCNC3)c21 (max concentration tested 10000 nM) ?
### Response 0

### Prompt drug sensitivity score for Nc1ncnc2c1nc(Cl)n2[C@@H]1O[C@H](CO)[C@@H](O)[C@H]1O [8-chloro-adenosine] (max concentration tested 50000 nM) ?
### Response 21.9

### Prompt drug sensitivity score for NCC(=O)Nc1ccc(-n2nc(C(F)(F)F)cc2-c2ccc3c(ccc4ccccc43)c2)cc1 (max concentration tested 25000 nM) ?
### Response 8.11

### Prompt drug sensitivity score for Cc1cc(C(=O)NOCCO)c(Nc2ccc(I)cc2F)n(C)c1=O [AZD-8330] (max concentration tested 10000 nM) ?
### Response 0

* * *

System: DERL-7 (IL-2 2.5 ng/mL)
experiment: relative IC50 (inflection point of fitted viability curve, relative to fitted max inhibition); higher = less sensitive
test-parameters: 72 h
property-name: relative IC50 (nM)
# value in nM; strip the unit string

### Prompt relative IC50 for `COc1cc(O)c2c(c1)/C=C/C[C@H](O)[C@H](O)C(=O)/C=C\C[C@H](C)OC2=O` ?
### Response 572

### Prompt relative IC50 for `CC(C)C[C@@H](C(=O)N[C@H](C(=O)OC1CCCC1)c1ccccc1)[C@H](O)C(=O)NO` ?
### Response 23.3

### Prompt relative IC50 for COc1ccc(C[C@H](NC(=O)[C@H](C)NC(=O)CN2CCOCC2)C(=O)N[C@@H](Cc2ccccc2)C(=O)C2(C)CO2)cc1 (stereo in doubt) ?
### Response 18.7

### Prompt relative IC50 for `CC(=O)c1c(C)c2cnc(Nc3ccc(N4CCNCC4)cn3)nc2n(C2CCCC2)c1=O` ?
### Response 1380

### Prompt relative IC50 for `CCN(CC)C(=S)SSC(=S)N(CC)CC` ?
### Response 194

### Prompt relative IC50 for `CCc1c2c(nc3ccc(OC(=O)N4CCC(N5CCCCC5)CC4)cc13)-c1cc3c(c(=O)n1C2)COC(=O)[C@]3(O)CC` ?
### Response 597

### Prompt relative IC50 for `COC(=O)c1ccc2c(c1)NC(=O)/C2=C(\Nc1ccc(N(C)C(=O)CN2CCN(C)CC2)cc1)c1ccccc1` ?
### Response 1210

### Prompt relative IC50 for `CC[C@]1(O)C[C@@H]2CN(CCc3c([nH]c4ccccc34)[C@@](C(=O)OC)(c3cc4c(cc3OC)N(C)[C@H]3[C@@](O)(C(=O)OC)[C@H](OC(C)=O)[C@]5(CC)C=CCN6CC[C@]43[C@@H]65)C2)C1` ?
### Response 3.3

### Prompt relative IC50 for `Nc1ncnc2c1nc(N)n2[C@@H]1O[C@H](CO)[C@@H](O)[C@H]1O` ?
### Response 489

### Prompt relative IC50 for `CO[C@H]1C[C@@H]2CC[C@@H](C)[C@@](O)(O2)C(=O)C(=O)N2CCCC[C@H]2C(=O)O[C@H]([C@H](C)C[C@@H]2CC[C@@H](OC(=O)C(C)(CO)CO)[C@H](OC)C2)CC(=O)[C@H](C)/C=C(\C)[C@@H](O)[C@@H](OC)C(=O)[C@H](C)C[C@H](C)/C=C/C=C/C=C/1C` ?
### Response 0.57

### Prompt relative IC50 for `O=C(c1ccc(/C=C/c2n[nH]c3ccccc23)cc1)N1CCNCC1` ?
### Response 920

### Prompt relative IC50 for `COc1cc(Nc2ncc3c(n2)-c2ccc(Cl)cc2C(c2c(F)cccc2OC)=NC3)ccc1C(=O)O` ?
### Response 28.2

### Prompt relative IC50 for `COc1cc(F)c(F)c(Nc2ccc(I)cc2F)c1NS(=O)(=O)C1(C[C@H](O)CO)CC1` ?
### Response 194
